- TARGET_UNDER_TEST: lipoxygenase (LOX) (Glycine max, UniProt P08170)
- Sequence (P08170 1-839): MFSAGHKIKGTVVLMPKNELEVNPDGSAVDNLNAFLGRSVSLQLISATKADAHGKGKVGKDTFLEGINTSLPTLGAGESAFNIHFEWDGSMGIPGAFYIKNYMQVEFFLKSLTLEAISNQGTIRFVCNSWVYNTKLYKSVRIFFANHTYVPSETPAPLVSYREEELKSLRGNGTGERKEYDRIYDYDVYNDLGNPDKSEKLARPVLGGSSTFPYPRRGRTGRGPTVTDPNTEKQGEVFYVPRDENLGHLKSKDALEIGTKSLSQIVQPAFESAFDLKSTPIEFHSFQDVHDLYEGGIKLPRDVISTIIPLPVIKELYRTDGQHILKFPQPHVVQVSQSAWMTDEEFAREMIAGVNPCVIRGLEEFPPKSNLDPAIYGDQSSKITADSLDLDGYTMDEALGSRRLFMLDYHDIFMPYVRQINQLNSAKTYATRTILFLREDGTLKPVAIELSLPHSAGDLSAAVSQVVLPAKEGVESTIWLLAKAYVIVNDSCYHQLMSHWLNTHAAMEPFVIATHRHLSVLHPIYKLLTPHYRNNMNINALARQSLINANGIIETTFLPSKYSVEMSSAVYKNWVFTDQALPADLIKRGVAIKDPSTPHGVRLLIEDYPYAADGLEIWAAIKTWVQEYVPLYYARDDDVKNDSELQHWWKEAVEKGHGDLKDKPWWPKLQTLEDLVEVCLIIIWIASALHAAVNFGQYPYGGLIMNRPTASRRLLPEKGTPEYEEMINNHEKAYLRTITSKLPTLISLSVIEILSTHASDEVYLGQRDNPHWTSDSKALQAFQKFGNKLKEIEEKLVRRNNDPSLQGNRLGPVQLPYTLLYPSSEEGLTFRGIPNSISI
- PROTOCOL: Inhibition of linoleic acid peroxidation by LOX
- Assay type: biochemical
- CONDITION_INFO: p(IC50)= -Log(IC50); Table S4, this study
OUTCOME_MEASURE: pIC50 LOX
Reply with the value as a number alone.

Fc1ccccc1-c1nnc([S][Ag]([PH](c2ccccc2)(c2ccccc2)c2ccccc2)([PH](c2ccccc2)(c2ccccc2)c2ccccc2)[PH](c2ccccc2)(c2ccccc2)c2ccccc2)o1 [compound 2] | 5.1
Clc1ccccc1-c1nnc([S][Ag]([PH](c2ccccc2)(c2ccccc2)c2ccccc2)([PH](c2ccccc2)(c2ccccc2)c2ccccc2)[PH](c2ccccc2)(c2ccccc2)c2ccccc2)o1 [compound 4] | 5.1
Clc1cccc(-c2nnc([S][Ag]([PH](c3ccccc3)(c3ccccc3)c3ccccc3)([PH](c3ccccc3)(c3ccccc3)c3ccccc3)[PH](c3ccccc3)(c3ccccc3)c3ccccc3)o2)c1 [compound 5] | 5.7
c1ccc(-c2nnc([S][Ag]([PH](c3ccccc3)(c3ccccc3)c3ccccc3)([PH](c3ccccc3)(c3ccccc3)c3ccccc3)[PH](c3ccccc3)(c3ccccc3)c3ccccc3)o2)cc1 [compound 1] | 5.6

With those in mind, consider the next molecule.
query: What pIC50 LOX value was documented for this molecule, Fc1ccc(-c2nnc([S][Ag]([PH](c3ccccc3)(c3ccccc3)c3ccccc3)([PH](c3ccccc3)(c3ccccc3)c3ccccc3)[PH](c3ccccc3)(c3ccccc3)c3ccccc3)o2)cc1 [compound 3] ?
result: 5.2

* * *

- Tested on: normal human fetal lung fibroblast (MRC-5) cells
- PROTOCOL: SRB toxicity assay, MRC-5
- Type: cell-based
- CONDITION_INFO: 48 h incubation
# strict inequality: IC50 < 3 µM yields Condition met, everything else yields Condition not met

Would you please look over these solved cases?
Clc1cccc(-c2nnc([S][Ag]([PH](c3ccccc3)(c3ccccc3)c3ccccc3)([PH](c3ccccc3)(c3ccccc3)c3ccccc3)[PH](c3ccccc3)(c3ccccc3)c3ccccc3)o2)c1 | Condition met
Fc1ccc(-c2nnc([S][Ag]([PH](c3ccccc3)(c3ccccc3)c3ccccc3)([PH](c3ccccc3)(c3ccccc3)c3ccccc3)[PH](c3ccccc3)(c3ccccc3)c3ccccc3)o2)cc1 | Condition met
Clc1ccccc1-c1nnc([S][Ag]([PH](c2ccccc2)(c2ccccc2)c2ccccc2)([PH](c2ccccc2)(c2ccccc2)c2ccccc2)[PH](c2ccccc2)(c2ccccc2)c2ccccc2)o1 | Condition not met
c1ccc(-c2nnc([S][Ag]([PH](c3ccccc3)(c3ccccc3)c3ccccc3)([PH](c3ccccc3)(c3ccccc3)c3ccccc3)[PH](c3ccccc3)(c3ccccc3)c3ccccc3)o2)cc1 | Condition not met

Alright, here's another molecule for you.
query: Below 3 µM on IC50? Entry `Fc1ccccc1-c1nnc([S][Ag]([PH](c2ccccc2)(c2ccccc2)c2ccccc2)([PH](c2ccccc2)(c2ccccc2)c2ccccc2)[PH](c2ccccc2)(c2ccccc2)c2ccccc2)o1`
result: Condition not met
